Assayed System: UniProtKB Q99496
Sequence (Q99496 whole entry): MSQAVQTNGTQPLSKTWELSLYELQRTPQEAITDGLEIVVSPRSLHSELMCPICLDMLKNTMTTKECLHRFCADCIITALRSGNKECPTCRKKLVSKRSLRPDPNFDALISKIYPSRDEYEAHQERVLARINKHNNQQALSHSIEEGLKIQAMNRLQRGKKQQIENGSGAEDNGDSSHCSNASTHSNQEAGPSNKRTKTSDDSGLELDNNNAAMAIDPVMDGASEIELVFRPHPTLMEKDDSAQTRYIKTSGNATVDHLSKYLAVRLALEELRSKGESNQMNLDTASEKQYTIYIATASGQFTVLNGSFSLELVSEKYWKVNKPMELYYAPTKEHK
Sequence (P35226 whole entry partner): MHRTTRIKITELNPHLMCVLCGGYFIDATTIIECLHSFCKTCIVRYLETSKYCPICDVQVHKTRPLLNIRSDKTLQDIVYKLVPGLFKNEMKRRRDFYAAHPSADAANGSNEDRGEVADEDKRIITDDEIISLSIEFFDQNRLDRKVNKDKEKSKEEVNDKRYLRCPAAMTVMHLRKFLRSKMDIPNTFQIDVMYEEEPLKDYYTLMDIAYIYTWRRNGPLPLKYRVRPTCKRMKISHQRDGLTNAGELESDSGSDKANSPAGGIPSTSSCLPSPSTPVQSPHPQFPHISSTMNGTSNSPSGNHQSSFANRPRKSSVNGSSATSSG
Test: KD classes of Table A (direct binding to Ring1B-Bmi1)
Experimental Conditions: class given in Table A
# Kd annotations

Completed entries (count: 5):
Smiles Text | Assayed System | Kd
CCc1c(-c2ccc(C)c3[nH]ccc23)[nH]c(C(=O)O)c1-c1cccc2[nH]ccc12 | UniProtKB Q99496 | < 20 µM
CCOC(=O)c1[nH]c(-c2cccc3[nH]ncc23)c(CC)c1-c1ccc(OC)cc1Cl | UniProtKB Q99496 | > 100 µM
CCc1c(-c2cccc3[nH]ccc23)[nH]c(C(=O)O)c1-c1cnccc1Cl | UniProtKB Q99496 | 50 to 100 µM
CCCC(=O)NCCn1ccc2c(-c3c(C(=O)O)[nH]c(-c4cc(F)cc5[nH]ccc45)c3C(C)C)cc(OC)cc21 | UniProtKB Q99496 | < 20 µM
CC(C)c1c(-c2cc(F)cc3[nH]ccc23)[nH]c(C(=O)O)c1-c1ccc2c3c1ccn3CCO2 | UniProtKB Q99496 | < 20 µM

Q: Name the value of Kd reported for "COc1cccc(-c2c(C(=O)O)[nH]c(-c3cc(F)cc4[nH]ccc34)c2C(C)C)c1Cl" when tested on UniProtKB Q99496.
Ans: < 20 µM

Q: Name the value of Kd reported for "CC(C)c1c(-c2cc(F)cc3[nH]ccc23)[nH]c(C(=O)O)c1-c1c2cc[nH]c2cc2[nH]ccc12" when tested on UniProtKB Q99496.
Ans: < 20 µM
